Cited source: patent US10399940B2

Target: F508delCFTR (Homo sapiens, UniProt P13569, DEL508-508)
Construct: expressed in transfected cells; host or cells: CFBE41o- (human lung derived epithelial cell line), doxycycline-inducible expression
Sequence (P13569 with tags, fused parts or gaps DEL508-508): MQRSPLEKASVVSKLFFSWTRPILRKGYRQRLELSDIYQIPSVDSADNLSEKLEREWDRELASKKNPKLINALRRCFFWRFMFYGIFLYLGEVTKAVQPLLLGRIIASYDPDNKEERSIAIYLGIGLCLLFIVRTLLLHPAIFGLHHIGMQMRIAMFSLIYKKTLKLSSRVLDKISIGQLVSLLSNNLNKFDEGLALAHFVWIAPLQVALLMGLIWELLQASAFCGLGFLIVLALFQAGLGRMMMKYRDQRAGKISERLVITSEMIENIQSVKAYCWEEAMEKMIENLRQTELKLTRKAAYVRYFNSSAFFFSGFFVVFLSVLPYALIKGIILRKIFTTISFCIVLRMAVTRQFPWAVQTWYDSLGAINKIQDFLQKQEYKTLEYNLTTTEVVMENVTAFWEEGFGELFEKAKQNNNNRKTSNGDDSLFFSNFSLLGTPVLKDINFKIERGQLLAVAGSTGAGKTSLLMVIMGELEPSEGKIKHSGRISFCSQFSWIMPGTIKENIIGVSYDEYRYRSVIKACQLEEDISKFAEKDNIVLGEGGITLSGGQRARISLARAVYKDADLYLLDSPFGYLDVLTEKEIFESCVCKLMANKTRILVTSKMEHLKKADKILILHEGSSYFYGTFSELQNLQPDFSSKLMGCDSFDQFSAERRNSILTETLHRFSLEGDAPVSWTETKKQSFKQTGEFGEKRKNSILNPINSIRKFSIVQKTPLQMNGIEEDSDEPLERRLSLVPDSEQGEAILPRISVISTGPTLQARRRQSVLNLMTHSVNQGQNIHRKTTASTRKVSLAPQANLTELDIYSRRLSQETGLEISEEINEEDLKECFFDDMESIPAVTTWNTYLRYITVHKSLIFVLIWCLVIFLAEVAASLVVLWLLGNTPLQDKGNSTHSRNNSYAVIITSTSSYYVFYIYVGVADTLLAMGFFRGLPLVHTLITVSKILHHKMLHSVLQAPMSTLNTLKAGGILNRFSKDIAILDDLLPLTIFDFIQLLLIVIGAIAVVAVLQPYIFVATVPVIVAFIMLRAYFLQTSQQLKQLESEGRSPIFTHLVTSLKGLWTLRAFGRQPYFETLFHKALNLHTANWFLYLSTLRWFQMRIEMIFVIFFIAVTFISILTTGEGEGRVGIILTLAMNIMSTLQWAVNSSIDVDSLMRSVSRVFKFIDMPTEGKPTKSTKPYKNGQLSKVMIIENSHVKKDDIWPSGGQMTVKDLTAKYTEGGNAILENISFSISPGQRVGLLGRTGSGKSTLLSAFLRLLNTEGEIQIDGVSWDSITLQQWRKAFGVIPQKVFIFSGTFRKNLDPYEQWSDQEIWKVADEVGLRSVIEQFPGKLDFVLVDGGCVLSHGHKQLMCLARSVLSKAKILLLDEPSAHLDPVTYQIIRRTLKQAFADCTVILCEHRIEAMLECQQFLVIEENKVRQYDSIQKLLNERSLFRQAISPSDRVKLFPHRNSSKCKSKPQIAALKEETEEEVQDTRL
Test: Cell Surface Expression-Horse Radish Peroxidase (CSE-HRP) assay;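 note: % of on-plate positive control (2 µM of the co-corrector compound) after DMSO subtraction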
Assay type: cell-based
Conditions: CFBE41o-F508delCFTR-HRP cells; without co-corrector; normalized to on-plate positive control; highest concentration 20 μM
assay-readout: Maximum % activity (without co-corrector)

# molecule, tested-on, value-measured
rows = [
    ("COc1ncc(C(F)(F)F)cc1CO[C@H]1[C@H](C(C)(C)OC)[C@@H](C(=O)O)N(C(=O)OC(C)C)[C@H]1c1ccccc1C(C)C", "F508delCFTR (Homo sapiens, UniProt P13569, DEL508-508)", "+++ (≥200)"),
    ("COc1ncc(C(F)(F)F)cc1CO[C@H]1[C@H](C(C)(C)C)[C@@H](C(=O)O)N(C(=O)[C@@H]2CCCCO2)[C@H]1c1ccccc1-c1ccc(Cl)cc1", "F508delCFTR (Homo sapiens, UniProt P13569, DEL508-508)", "+++ (≥200)"),
    ("COc1ncc(Cl)cc1CO[C@H]1[C@H](C(C)(C)C)[C@@H](C(=O)O)N(C(=O)[C@@H]2CCCCO2)[C@H]1c1ccccc1C", "F508delCFTR (Homo sapiens, UniProt P13569, DEL508-508)", "+++ (≥200)"),
    ("COc1ncc(C2CCC2)cc1CO[C@H]1[C@H](C(C)(C)C)[C@@H](C(=O)O)N(C(=O)C2(C(F)(F)F)CC2)[C@H]1c1cccnc1OC(C)C", "F508delCFTR (Homo sapiens, UniProt P13569, DEL508-508)", "+ (<100)"),
    ("CC(C)(C)[C@@H]1C(OCc2cc(Cl)ccc2Cl)[C@@H](c2ccccc2)N(C(=O)C2CCCCC2)[C@H]1C(=O)O (mixture of isomers)", "F508delCFTR (Homo sapiens, UniProt P13569, DEL508-508)", "++ (≥100 and <200)"),
    ("COc1ccc(C(F)(F)F)cc1COC1[C@@H](c2ccccc2)N(C(=O)C2CCCCC2)[C@@H](C(=O)O)[C@@H]1C(C)(C)C (mixture of isomers)", "F508delCFTR (Homo sapiens, UniProt P13569, DEL508-508)", "++ (≥100 and <200)"),
    ("COc1ncc(C(F)(F)F)cc1CO[C@H]1[C@H](C(C)(C)C)[C@@H](C(=O)O)N(C(=O)[C@@H]2CCCCO2)[C@H]1c1cc(I)ccc1C", "F508delCFTR (Homo sapiens, UniProt P13569, DEL508-508)", "+ (<100)"),
    ("COc1ccc(C(F)(F)F)cc1COC1[C@@H](c2ccccc2)N(C(=O)N(C(C)C)C(C)C)[C@@H](C(=O)O)[C@@H]1C(C)(C)C (mixture of isomers)", "F508delCFTR (Homo sapiens, UniProt P13569, DEL508-508)", "+ (<100)"),
]

May I ask what Maximum % activity (without co-corrector) has been recorded for COc1ccc(C(C)(C)C)cc1CO[C@H]1[C@H](C(C)(C)C)[C@@H](C(=O)O)N(C(=O)[C@@H]2CCCCO2)[C@H]1c1cccc2ccccc12 ? +++ (≥200)

Please answer likewise for COc1ccc(C(C)(C)C)cc1CO[C@H]1[C@H](C(C)(C)C)[C@@H](C(=O)O)N(C(=O)[C@@H]2CCCCO2)[C@H]1c1ccccc1C +++ (≥200)

Please answer likewise for COc1ncc(C2CCC2)cc1CO[C@H]1[C@H](C(C)(C)C)[C@@H](C(=O)O)N(C(=O)[C@@H]2CCCCO2)[C@H]1c1ccccc1C(C)C +++ (≥200)

Please answer likewise for COc1ccc(Cl)cc1CO[C@@H]1[C@@H](C(C)(C)C)[C@H](C(=O)O)N(C(=O)OC2CCC2)[C@@H]1c1ccccc1 (racemic) ++ (≥100 and <200)
